System: Fibroblasts
runDescription: BioMAP HDF3CGF system (IL-1β + TNF-α + IFN-γ + EGF + bFGF + PDGFbb), scoring of readout parameters
Assay type: cell-based, human
settings: desired change decrease
valueType: PAI-1 score
Answers are plain numbers.

Request: Item under review: C=C(NC(=O)C(=C)NC(=O)c1csc(C2=N[C@@H]3c4csc(n4)[C@H]4NC(=O)c5csc(n5)[C@H]([C@](C)(O)[C@@H](C)O)NC(=O)[C@H]5CSC(=N5)/C(=C/C)NC(=O)[C@H]([C@@H](C)O)NC(=O)c5csc(n5)[C@]3(CC2)NC(=O)[C@H](C)NC(=O)C(=C)NC(=O)[C@H](C)NC(=O)[C@H]([C@@H](C)CC)N[C@@H]2C=Cc3c([C@H](C)O)cc(nc3[C@H]2O)C(=O)O[C@@H]4C)n1)C(N)=O [Thiostrepton] . Reported PAI-1 score?
Result: 1

Request: Same read-out for COc1cc2c(c(OC)c1OC)-c1ccc(OC)c(=O)cc1[C@@H](NC(C)=O)CC2 [Colchicine] ?
Result: 0

Request: Another compound to check: Cc1[nH]ccc2c1[nH]c1cc(=O)ccc12 [Harmol]
Result: 1

Request: Now this one: Cn1cnc([N+](=O)[O-])c1Sc1ncnc2nc[nH]c12 [Azathioprine]
Result: 0

Request: Continue with Fc1ccc(C(OCCN2CCN(CCCc3ccccc3)CC2)c2ccc(F)cc2)cc1 [GBR 12909]
Result: 1

Request: Proceed to CCN(CC)CCNc1ccc(CO)c2sc3ccccc3c(=O)c12 [Hycanthone]
Result: 1

Request: Please answer likewise for O=C(O)c1ccccc1Nc1cccc(C(F)(F)F)c1 [Flufenamic Acid]
Result: 0

Request: Ok, now Cc1c(Cl)cccc1Nc1ccccc1C(=O)O [Tolfenamic Acid]
Result: 0

Request: How about CCc1oc2ccccc2c1C(=O)c1cc(Br)c(O)c(Br)c1 [Benzbromarone] ?
Result: 1

Request: Check COc1cc(/C=C/C(=O)N2CCC=CC2=O)cc(OC)c1OC [Piperlongumine] too.
Result: 1

Give PAI-1 score for each of the items listed below.
1. C[C@]12C=CC(=O)C=C1CC[C@@H]1[C@@H]2[C@@H](O)C[C@@]2(C)[C@H]1CC[C@]2(O)C(=O)CO [Prednisolone]
2. COC(=O)Nc1nc2ccc(SC(C)C)cc2[nH]1 [Methiazole]
3. COc1cc(-c2ccc(=O)[nH]n2)ccc1OC(F)F [Zardaverine]

Result:
[0, 1, 1]
